test: Metabolic stability in human liver microsomes assessed as compound remaining after 30 mins
Assay type: ADME, Microsome
conditions: read-out: Stability
assay.metric: remaining at 0.5 h (%)

O=C(CCc1nnnn1C1CC1)c1ccccc1: 73
CC(C)(C)C(=O)CS(=O)(=O)c1nnnn1-c1ccccc1: 4
O=C(CCc1nnnn1C1CCCc2ccccc21)c1ccccc1 (stereo unspecified): 7

1 = O=C(CCc1nnnn1-c1ccccc1)c1cccc(Cl)c1
2 = N#Cc1ccc(-n2nnnc2CCC(=O)c2ccccc2)cc1
3 = O=C(CCc1nnnn1-c1cccnc1)c1ccccc1
**Query** Write the entries in order, lowest recorded remaining at 0.5 h first. API: response body holds the labels in the requested order.
**Result** 1, 2, 3

====

test: Metabolic stability in human liver microsomes assessed as compound remaining after 30 mins
Format: ADME, Microsome
conditions: read-out: Stability
assay.metric: remaining at 0.5 h (%)

Examples with their reported remaining at 0.5 h follow.
Cc1ccc(-n2nnnc2CCC(=O)c2ccccc2)cc1: 2
O=C(CCn1nnnc1-c1ncccn1)c1ccccc1: 53

A = O=C(CCn1nnnc1-c1ccc2c(c1)OCO2)c1ccccc1
B = O=C(COc1nnnn1-c1ccccc1)c1ccccc1
C = O=C(CCc1nnnn1Cc1ccccc1)c1ccccc1
D = O=C(CCn1nnnc1-c1ccsc1)c1ccccc1
**Query** Hey, quick one: sort these by remaining at 0.5 h, largest value first please. To answer, write out the labels according to the requested order.
**Result** C, A, D, B

A = O=C(CCn1nnnc1-c1ccccc1Cl)c1ccccc1
B = COc1ccccc1-n1nnnc1CCC(=O)c1ccccc1
C = COc1ccccc1-c1nnnn1CCC(=O)c1ccccc1
D = O=C(CCn1nnnc1-c1ccccc1)c1ccccc1
**Query** Returns the items ordered by remaining at 0.5 h, from maximum to minimum. Would you mind listing the labels in the order requested?
**Result** B, D, C, A
(B: 42%, D: 29%, C: 9%, A: 5%)

====

test: Metabolic stability in human liver microsomes assessed as compound remaining after 30 mins
Format: ADME, Microsome
conditions: read-out: Stability
assay.metric: remaining at 0.5 h (%)

Example results:
O=C(CCc1nnnn1C1CCc2ccccc21)c1ccccc1 (stereo unspecified): 1
O=C(CCc1nnnn1-c1ccc(Cl)cc1)c1ccccc1: 34
Cc1ccccc1-n1nnnc1CCC(=O)c1ccccc1: 22

a = O=C(CCc1nnnn1-c1ccccc1)c1cccc(F)c1
b = COc1cccc(-n2nnnc2CCC(=O)c2ccccc2)c1
**Query** Could you check which of a and b has a smaller value for remaining at 0.5 h? Pick one; state its label.
**Result** b
(b: 6%, a: 21%)

I = COc1ccc(-c2nnnn2CCC(=O)c2ccccc2)cc1
II = O=C(CCc1nnnn1-c1ccccc1)C1CCCCC1
**Query** For I and II , which recorded remaining at 0.5 h is lower? Give the chosen item's label as your response.
**Result** II
(II: 11%, I: 18%)

====

test: Metabolic stability in human liver microsomes assessed as compound remaining after 30 mins
Type: ADME, Microsome
conditions: read-out: Stability
assay.metric: remaining at 0.5 h (%)

a = O=C(CCc1nnnn1-c1ccccc1)c1ccccc1
b = COc1ccc(-n2nnnc2CCC(=O)c2ccccc2)cc1
**Query** # return whichever of a and b has the smaller remaining at 0.5 h Lab note: record the label of whichever item you select.
**Result** b

====

test: Metabolic stability in human liver microsomes assessed as compound remaining after 30 mins
Type: ADME, Microsome
conditions: read-out: Stability
assay.metric: remaining at 0.5 h (%)

Some compounds with recorded remaining at 0.5 h:
CC(C)(C)C(=O)C[S+]([O-])c1nnnn1-c1ccccc1 (configuration not stated): 25
O=C(CCn1nnnc1-c1cnccn1)c1ccccc1: 31
O=C(CCc1nnnn1C1CCCCC1)c1ccccc1: 14

P = Cc1cccc(-n2nnnc2CCC(=O)c2ccccc2)c1
Q = COc1cccc(C(=O)CCc2nnnn2-c2ccccc2)c1
R = O=C(CCn1nnnc1-c1cccc(Cl)c1)c1ccccc1
S = O=C(CCn1nnnc1-c1cccnc1)c1ccccc1
**Query** Ranking field: remaining at 0.5 h; order: falling. The reply should contain the labels ordered as requested.
**Result** S, R, Q, P
